- MEASUREMENT_DESCRIPTION: clinical
- CONDITION_SUMMARY: human, plasma, iv, 1 mg
READOUT_NAME: clearance
The answer consists of two parts: a number and, after it, its unit.

{"COMPOUND": "CCOc1cc(CC(=O)N[C@@H](CC(C)C)c2ccccc2N2CCCCC2)ccc1C(=O)O [AG-EE 623 ZW]", "VAL": "443 mL/min"}

Notebook: CCOc1cc(CC(=O)N[C@H](CC(C)C)c2ccccc2N2CCCCC2)ccc1C(=O)O [AG-EE 624 ZW] , clearance read as 75 mL/min

----------
- MEASUREMENT_DESCRIPTION: Study 2: plasma concentration, HPLC
- Assay type: in vivo, human
- CONDITION_SUMMARY: human, plasma, po, 2 mg, 2 mg capsule, 4.00 h
READOUT_NAME: concentration at 4 h (ng/mL)
The answer is to be given in ng/mL; state only the numeric part.

Notebook: CCOc1cc(CC(=O)NC(CC(C)C)c2ccccc2N2CCCCC2)ccc1C(=O)O (racemic) , concentration at 4 h read as 16.8

----------
- MEASUREMENT_DESCRIPTION: Study 2: plasma concentration, HPLC
- Type: in vivo, human
- CONDITION_SUMMARY: human, plasma, po, 2 mg, 2 mg tablet, 0.20 h
READOUT_NAME: concentration at 0.2 h (ng/mL)
The answer is to be given in ng/mL; state only the numeric part.

Notebook: CCOc1cc(CC(=O)NC(CC(C)C)c2ccccc2N2CCCCC2)ccc1C(=O)O (racemic) [AG-EE 388 ZW] , concentration at 0.2 h read as 15

----------
- MEASUREMENT_DESCRIPTION: Study 3: plasma concentration of active substance, single test subject
- Format: in vivo, human
- CONDITION_SUMMARY: human, plasma, po; 2 mg, 4.00 h
READOUT_NAME: concentration at 4 h
The answer consists of two parts: a number and, after it, its unit.

Notebook: CCOc1cc(CC(=O)NC(CC(C)C)c2ccccc2N2CCCCC2)ccc1C(=O)O (racemic) , concentration at 4 h read as 32 ng/mL

----------
- MEASUREMENT_DESCRIPTION: Study 2: plasma concentration, HPLC
- Type: in vivo, human
- CONDITION_SUMMARY: human, plasma, po, 2 mg, 2 mg capsule, 1.50 h
READOUT_NAME: concentration at 1.5 h (ng/mL)
The answer is to be given in ng/mL; state only the numeric part.

Notebook: CCOc1cc(CC(=O)NC(CC(C)C)c2ccccc2N2CCCCC2)ccc1C(=O)O (racemic) , concentration at 1.5 h read as 65.1

----------
- MEASUREMENT_DESCRIPTION: Study 3: plasma concentration of active substance, single test subject
- Assay type: in vivo, human
- CONDITION_SUMMARY: human, plasma, po; 4 mg, 4.00 h
READOUT_NAME: concentration at 4 h (µg/mL)
The answer is to be given in µg/mL; state only the numeric part.

Notebook: CCOc1cc(CC(=O)NC(CC(C)C)c2ccccc2N2CCCCC2)ccc1C(=O)O (racemic) [AG-EE 388 ZW] , concentration at 4 h read as 0.071

----------
- MEASUREMENT_DESCRIPTION: Study 3: plasma concentration of active substance, single test subject
- Type: in vivo, human
- CONDITION_SUMMARY: human, plasma, po; 4 mg, 1.25 h
READOUT_NAME: concentration at 1.25 h (ng/mL)
The answer is to be given in ng/mL; state only the numeric part.

Notebook: CCOc1cc(CC(=O)NC(CC(C)C)c2ccccc2N2CCCCC2)ccc1C(=O)O (racemic) , concentration at 1.25 h read as 130

Origin of the recorded values: patent US6143769A
